Reported % Release of degrader after 24 h dog values follow for various compounds
Test: BTK FAC plasma stability assay, dog plasma
Format: in vitro ADME
Settings: 24 h
State the answer as a number, implicitly in %.

Query: # query: % Release of degrader after 24 h dog of entry COCCOCCOCCOCCOCCOCCOCCOCCOCCOCCOCCOCCC(=O)NCC(=O)OC(C)(C)c1ccc(C(=O)Nc2cc(F)cc(-c3ncnc4[nH]c(-c5ccc(CCN6CCC7(CC6)CCN(C(=O)c6ccc(OC)c(N8CCC(=O)NC8=O)c6)CC7)cc5)cc34)c2C)c(F)c1 [Example A34]
Result: 5.3

Query: And the next one, CCCCCCCCCCCN(C(=O)CCCCCCCCCC(=O)O)C(CCC(=O)NCCOCCOCCOCCOCCOCCOCCOCCOCCOCCOCCOCCOCCC(=O)N[C@H](C)C(=O)OC(C)(C)c1ccc(C(=O)Nc2cc(F)cc(-c3ncnc4[nH]c(-c5ccc(CCN6CCC7(CC6)CCN(C(=O)c6ccc(OC)c(N8CCC(=O)NC8=O)c6)CC7)cc5)cc34)c2C)c(F)c1)C(=O)O (stereo partly drawn) [Example A17] ?
Result: 3.7

Query: And the next one, CCCCCCCCCCCN(C(=O)CCCCCCCCCC(=O)O)C(CCC(=O)NCCOCCOCCOCCOCCOCCOCCOCCOCCOCCOCCOCCOCCC(=O)N1CCC(CC(=O)OC(C)(C)c2ccc(C(=O)Nc3cc(F)cc(-c4ncnc5[nH]c(-c6ccc(CCN7CCC8(CC7)CCN(C(=O)c7ccc(OC)c(N9CCC(=O)NC9=O)c7)CC8)cc6)cc45)c3C)c(F)c2)CC1)C(=O)O (stereo not drawn) [Example A21] ?
Result: 0.3
